Provenance of the data: patent US20030224390A1

Form field: β-galactosidase activity, yeast two-hybrid; RU (one value per entry).
Biological target: T1, Gal4 transcriptional activation domain (AD) fused in frame with AR (pGAD-C2) (yeast, UniProt P10275 1-920, limits assumed)
T1 sequence (looked up): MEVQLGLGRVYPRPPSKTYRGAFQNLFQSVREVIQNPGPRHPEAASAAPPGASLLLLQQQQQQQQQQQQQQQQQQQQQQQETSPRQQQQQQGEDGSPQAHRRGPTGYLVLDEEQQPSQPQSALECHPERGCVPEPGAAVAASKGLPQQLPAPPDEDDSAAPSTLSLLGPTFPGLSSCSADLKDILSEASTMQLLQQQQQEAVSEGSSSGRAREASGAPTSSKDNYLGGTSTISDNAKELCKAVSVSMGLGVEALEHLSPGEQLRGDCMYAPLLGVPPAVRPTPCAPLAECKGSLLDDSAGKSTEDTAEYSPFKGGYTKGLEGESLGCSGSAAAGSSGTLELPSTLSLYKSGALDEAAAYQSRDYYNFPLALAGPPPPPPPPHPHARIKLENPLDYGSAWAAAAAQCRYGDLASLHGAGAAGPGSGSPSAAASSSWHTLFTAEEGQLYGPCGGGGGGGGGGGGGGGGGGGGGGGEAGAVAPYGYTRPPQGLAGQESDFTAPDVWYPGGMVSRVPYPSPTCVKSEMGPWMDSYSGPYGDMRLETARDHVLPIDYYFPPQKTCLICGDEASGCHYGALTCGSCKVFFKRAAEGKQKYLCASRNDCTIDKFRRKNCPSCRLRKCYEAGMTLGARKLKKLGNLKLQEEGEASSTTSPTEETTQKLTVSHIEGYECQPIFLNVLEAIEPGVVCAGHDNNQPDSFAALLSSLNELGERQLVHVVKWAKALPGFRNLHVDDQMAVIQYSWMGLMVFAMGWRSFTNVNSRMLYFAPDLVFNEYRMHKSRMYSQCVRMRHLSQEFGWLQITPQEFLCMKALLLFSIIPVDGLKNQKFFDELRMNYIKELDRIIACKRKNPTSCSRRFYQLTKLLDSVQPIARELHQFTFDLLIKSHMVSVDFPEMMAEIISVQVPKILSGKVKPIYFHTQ
Assay: cell-based or functional assay
Kindly provide the number alone.

# example entries with known answers
{"columns": ["BINDER", "REPORTED VALUE"],
 "data": [
  ["B2A7 (peptide) MKLLSSIEQACDICRLKKLKCSKEKPKCAKCLKNNWECRYSPKTKRSPLTRAHLTEVESRLERLEQLFLLIFPREDLDMILKMDSLQDIKALLTGLFVQDNVNKDAVTDRLASVETDMPLTLRQHRISATSSSEESSNKGQRQLTVSEFPELLAMTRWGRHAALLEPQRLPPPRTTTQPQTEFERMFFFTRPMRTTGLLDLQPS", 0.5],
  ["M4D1 (peptide) MKLLSSIEQACDICRLKKLKCSKEKPKCAKCLKNNWECRYSPKTKRSPLTRAHLTEVESRLERLEQLFLLIFPREDLDMILKMDSLQDIKALLTGLFVQDNVNKDAVTDRLASVETDMPLTLRQHRISATSSSEESSNKGQRQLTVSEFRFPFHEMVREWESMGLERVRYAEP", 0.1],
  ["M2H3 (peptide) MKLLSSIEQACDICRLKKLKCSKEKPKCAKCLKNNWECRYSPKTKRSPLTRAHLTEVESRLERLEQLFLLIFPREDLDMILKMDSLQDIKALLTGLFVQDNVNKDAVTDRLASVETDMPLTLRQHRISATSSSEESSNKGQRQLTVSEFRQSFVSEILGGGWLPLDLQPS", 6.8]
]}

Entry under review: B8A10 (peptide) MKLLSSIEQACDICRLKKLKCSKEKPKCAKCLKNNWECRYSPKTKRSPLTRAHLTEVESRLERLEQLFLLIFPREDLDMILKMDSLQDIKALLTGLFVQDNVNKDAVTDRLASVETDMPLTLRQHRISATSSSEESSNKGQRQLTVSEFVNWDAVVPWSELVALLDLQPS . Reported β-galactosidase activity, yeast two-hybrid; RU?
0.4
